B1: Osa-1-4 twister ribozyme (parent)
chain: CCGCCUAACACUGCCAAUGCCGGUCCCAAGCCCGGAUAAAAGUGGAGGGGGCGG

Variants of: B1
Method Notes: self-cleavage, relative activity (ratio to wild type); higher = more cleavage; co-transcriptional
Threshold check on self-cleavage: at or above 0.09 gives Condition met, strictly below gives Condition not met.

Please review the entries below; each comes with its answer.
- CCGCCUAACACUGCCAAUGCCGGUCCCAAGCCCGGGUAAAAGUGGAGGGGGUGG [A36G C52U]: Condition met
- CCGCCUAACACUGCCAAUGCCGGUCCCAAGCCCGGAUAGAAGUGGAGGGUGCGG [A39G G50U]: Condition met
- CCGCCUAACACUGCCAAGGACGGUCCCAAGCCCGGAUAAAAGUGGAGGGGGCGG [C20A U18G]: Condition met
- CCGCCUAACACUGCCAAUGCCGGUCCCCAGCCCGGAUAAAAGUGUAGGGGGCGG [A28C G45U]: Condition not met
- CCGCCUAACACUGCCAACGCCGGUACCAAGCCCGGAUAAAAGUGGAGGGGGCGG [C25A U18C]: Condition met

Challenge: Say whether CCGCCUAACAUUGCCAAUGCCGGUCCCUAGCCCGGAUAAAAGUGGAGGGGGCGG [A28U C11U] shows self-cleavage of 0.09 or more.
Response given: Condition met

Challenge: Hi team, for CCGCCUAACACUGCCAAUGCCGGUCCCAAGCCCGGAUAAAAAUCGAGGGGGCGG [G42A G44C] , is the recorded self-cleavage at or above 0.09?
Response given: Condition met

Challenge: Could you tell me if the measured self-cleavage of CCGCCUAUCACUGCCAAUGCCGGUCCCAAGCCCGGAUAAGAGUGGAGGGGGCGG [A40G A8U] reaches 0.09 or more?
Response given: Condition met

Challenge: Is the recorded value of self-cleavage equal to or greater than 0.09 for this variant? CCGCCUAACAAUGCCAAUGCCGGUCCCAAGCCCGGAUAGAAGUGGAGGGGGCGG [A39G C11A]
Response given: Condition met

Challenge: Tell me whether self-cleavage is at least 0.09 here: CCGCCUAACACUGCGAAUGCCGGUCCCAAGCCCGGAUAAAAGUGCAGGGGGCGG [C15G G45C]
Response given: Condition not met

Challenge: Does CCGCCUAACACUGCCAAUGCCGGUCCCAAGGCCUGAUAAAAGUGGAGGGGGCGG [C31G G34U] have a reported self-cleavage of at least 0.09?
Response given: Condition not met

Challenge: Identify whether the reported self-cleavage of the following variant is 0.09 or greater: CCGCCUAACACCGCCAAUGCCGGUCCCAAGCCCUGAUAAAAGUGGAGGGGGCGG [G34U U12C]
Response given: Condition met

Challenge: Assess whether reported self-cleavage for CCGCCUAACACUGCCAAUACCGGACCCAAGCCCGGAUAAAAGUGGAGGGGGCGG [G19A U24A] sits at 0.09 or higher.
Response given: Condition not met

Challenge: Reported self-cleavage at or above 0.09? CCGCCUAACACUGCCAAUGCCGGUCCAAACCCCGGAUAAAAGUGGAGGGGGCGG [C27A G30C]
Response given: Condition not met

Challenge: Answer whether self-cleavage of CCGCCUAACACUGCCAAUGCCGGUCCCAACCCCGGAUAAAAGUGCAGGGGGCGG [G30C G45C] is greater than or equal to 0.09.
Response given: Condition not met
